// merged dataset of IC50 values, system = Lysine-specific demethylase 6B (Homo sapiens), multiple refs
Sequence (O15054 whole entry): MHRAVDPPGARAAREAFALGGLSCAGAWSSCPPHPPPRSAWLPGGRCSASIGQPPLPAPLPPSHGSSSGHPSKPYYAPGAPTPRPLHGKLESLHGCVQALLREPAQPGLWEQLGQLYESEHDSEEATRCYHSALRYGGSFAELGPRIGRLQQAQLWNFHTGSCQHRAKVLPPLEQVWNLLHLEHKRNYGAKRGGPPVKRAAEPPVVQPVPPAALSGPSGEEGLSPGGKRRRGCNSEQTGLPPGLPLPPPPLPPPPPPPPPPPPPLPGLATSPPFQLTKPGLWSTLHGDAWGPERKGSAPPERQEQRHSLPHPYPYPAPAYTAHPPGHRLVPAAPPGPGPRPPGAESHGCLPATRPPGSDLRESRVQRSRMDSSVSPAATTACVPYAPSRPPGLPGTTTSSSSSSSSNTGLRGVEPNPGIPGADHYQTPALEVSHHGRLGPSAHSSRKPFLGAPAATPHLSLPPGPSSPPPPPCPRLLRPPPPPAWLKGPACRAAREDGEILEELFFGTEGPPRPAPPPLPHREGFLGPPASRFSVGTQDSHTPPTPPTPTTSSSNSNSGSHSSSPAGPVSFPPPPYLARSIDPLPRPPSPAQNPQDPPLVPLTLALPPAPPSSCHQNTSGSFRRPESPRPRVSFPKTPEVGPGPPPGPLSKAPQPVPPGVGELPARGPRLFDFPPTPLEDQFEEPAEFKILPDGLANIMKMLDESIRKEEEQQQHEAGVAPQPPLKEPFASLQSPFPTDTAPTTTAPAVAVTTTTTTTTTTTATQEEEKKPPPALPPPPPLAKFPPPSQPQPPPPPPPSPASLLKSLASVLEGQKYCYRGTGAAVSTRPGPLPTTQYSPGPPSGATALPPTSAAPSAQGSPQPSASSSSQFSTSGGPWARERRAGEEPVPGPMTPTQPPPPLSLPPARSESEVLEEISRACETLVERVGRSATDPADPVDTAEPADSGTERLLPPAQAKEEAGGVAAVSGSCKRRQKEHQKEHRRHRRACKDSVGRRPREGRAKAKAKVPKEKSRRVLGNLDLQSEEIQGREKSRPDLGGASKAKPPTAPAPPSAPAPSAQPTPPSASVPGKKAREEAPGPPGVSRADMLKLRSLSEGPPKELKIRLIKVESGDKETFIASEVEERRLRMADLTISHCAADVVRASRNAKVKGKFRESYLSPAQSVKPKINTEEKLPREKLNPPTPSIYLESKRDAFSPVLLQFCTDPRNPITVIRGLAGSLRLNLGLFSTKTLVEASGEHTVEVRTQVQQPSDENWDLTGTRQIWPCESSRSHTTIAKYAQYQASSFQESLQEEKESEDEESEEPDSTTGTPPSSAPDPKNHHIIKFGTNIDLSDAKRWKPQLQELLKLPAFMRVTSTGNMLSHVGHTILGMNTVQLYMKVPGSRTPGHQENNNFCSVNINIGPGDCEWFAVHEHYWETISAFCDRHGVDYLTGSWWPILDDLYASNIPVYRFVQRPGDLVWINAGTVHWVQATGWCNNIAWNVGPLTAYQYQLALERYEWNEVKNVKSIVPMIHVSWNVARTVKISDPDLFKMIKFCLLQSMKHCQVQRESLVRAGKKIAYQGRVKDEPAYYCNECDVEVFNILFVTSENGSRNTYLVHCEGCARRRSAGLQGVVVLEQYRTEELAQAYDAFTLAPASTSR
REPORTED ENDPOINT: IC50 (nM)

O=C(O)CCNc1nc(N2CCN(c3ccc(F)cc3)CC2)cc(-n2ccnn2)n1 = 10000

A = Cl.N[C@H]1C[C@@H]1c1ccc(NC(=O)CCCCCNC(=O)c2ccc(O)c3ncccc23)cc1 (relative stereo)
B = Cc1cc(Cl)ccc1COc1ccnn1-c1cc(C(=O)O)ccn1
C = O=C(O)CCNc1nc(N2CCc3ccccc3CC2)cc(-n2ccnn2)n1
// query Arrange these compounds by their IC50, starting with the largest number. Returns: the labels listed in the requested order.
// result A, B, C
(A: 16000 nM, B: 2300 nM, C: 210 nM)
